# experiment-notes: Multiple ascending dose IV study in healthy adult subjects (safety, PK)
# Assay type: in vivo, human
# stated-conditions: human, plasma, intravenous, 100 mg, 100 mg weekly, Day 8
*1 amine or outer side, *2 acyl side, *3 side chain or, on linkers, in order; H or OH if unused. Where a SMILES comes first, the peptide text is derived from it. Bridges are numbered along the chain shown (N, C = ends). [ ]: non-standard residue; d: D form. The star is where a group is joined. Orn(4R-OH,5R-OCH2CH2NMe3+) = C[N+](C)(C)CCO[C@@H](N[*:3])[C@H](O)C[C@H](N[*:1])C(=O)[*:2]; pTerphenylCO(4''-OnC5H11) = CCCCCOc1ccc(-c2ccc(-c3ccc(C(=O)*)cc3)cc2)cc1; hTyr(3S-OH,4S-OH) = N[C@H](C(=O)O)[C@H](O)[C@@H](O)c1ccc(O)cc1; Pro(3S-OH,4S-Me) = C[C@H]1CN[C@H](C(=O)O)[C@H]1O; Hyp = O=C(O)[C@@H]1C[C@@H](O)CN1
quantity: Cmax (ng/mL)
Report the value in ng/mL with no unit label.

Prompt: Dear colleague, I am looking for the recorded Cmax of the following compound: CCCCCOc1ccc(-c2ccc(-c3ccc(C(=O)N[C@H]4C[C@@H](O)[C@@H](OCC[N+](C)(C)C)NC(=O)[C@@H]5[C@@H](O)[C@@H](C)CN5C(=O)[C@H]([C@@H](C)O)NC(=O)[C@H]([C@H](O)[C@@H](O)c5ccc(O)cc5)NC(=O)[C@@H]5C[C@@H](O)CN5C(=O)[C@H]([C@@H](C)O)NC4=O)cc3)cc2)cc1 [CD101] ({pTerphenylCO(4''-OnC5H11)}-[Orn(4R-OH,5R-OCH2CH2NMe3+)]T[Hyp][hTyr(3S-OH,4S-OH)]T[Pro(3S-OH,4S-Me)]; lactam 1-C)
Completion: 6490

###

# experiment-notes: Multiple ascending dose IV study in healthy adult subjects (safety, PK)
# Type: in vivo, human
# stated-conditions: human, plasma, intravenous, 200 mg, 200 mg weekly, Day 8; read-out: AUC0-168
*1 amine or outer side, *2 acyl side, *3 side chain or, on linkers, in order; H or OH if unused. Where a SMILES comes first, the peptide text is derived from it. Bridges are numbered along the chain shown (N, C = ends). [ ]: non-standard residue; d: D form. The star is where a group is joined. Orn(4R-OH,5R-OCH2CH2NMe3+) = C[N+](C)(C)CCO[C@@H](N[*:3])[C@H](O)C[C@H](N[*:1])C(=O)[*:2]; pTerphenylCO(4''-OnC5H11) = CCCCCOc1ccc(-c2ccc(-c3ccc(C(=O)*)cc3)cc2)cc1; hTyr(3S-OH,4S-OH) = N[C@H](C(=O)O)[C@H](O)[C@@H](O)c1ccc(O)cc1; Pro(3S-OH,4S-Me) = C[C@H]1CN[C@H](C(=O)O)[C@H]1O; Hyp = O=C(O)[C@@H]1C[C@@H](O)CN1
quantity: AUC(0-t) (µg·h/mL)
Report the value in µg·h/mL with no unit label.

Prompt: Dear colleague, I am looking for the recorded AUC(0-t) of the following compound: CCCCCOc1ccc(-c2ccc(-c3ccc(C(=O)N[C@H]4C[C@@H](O)[C@@H](OCC[N+](C)(C)C)NC(=O)[C@@H]5[C@@H](O)[C@@H](C)CN5C(=O)[C@H]([C@@H](C)O)NC(=O)[C@H]([C@H](O)[C@@H](O)c5ccc(O)cc5)NC(=O)[C@@H]5C[C@@H](O)CN5C(=O)[C@H]([C@@H](C)O)NC4=O)cc3)cc2)cc1 [CD101] ({pTerphenylCO(4''-OnC5H11)}-[Orn(4R-OH,5R-OCH2CH2NMe3+)]T[Hyp][hTyr(3S-OH,4S-OH)]T[Pro(3S-OH,4S-Me)]; lactam 1-C)
Completion: 813
